# Tested on: MDA-MB-231 breast
# method description: NCI tumour cell line growth inhibition, 48 h
This section presents compounds with their documented GI50 values.

Past entries and their recorded results:
# compound, GI50
records = [
    ("CC(C)(C#N)c1cc(Cn2cncn2)cc(C(C)(C)C#N)c1", "539 µM"),
    ("C=CCC(N[C@H](CO)c1ccccc1)c1ccc2ccccc2n1 (some centres undefined)", "> 100 µM"),
    ("CC(C)=CCCC(C)c1ccc(C)c2c1OCN(CC1CCNCC1)C2 (centres undefined)", "12.5 µM"),
    ("Nc1c(C(=O)c2ccc(Cl)cc2)sc(Nc2ccccc2)c1-c1nc2ccccc2s1", "2.35 µM"),
]

Request: I am curious: what GI50 value has been reported for `O=[N+]([O-])c1cc(Cl)c(Cl)c([N+](=O)[O-])c1Cl` ?
Result: 1.81 µM

Request: I am curious: what GI50 value has been reported for `CN[C@@H](C)C(=O)N[C@H](C(=O)N1CCC[C@H]1C(=O)N[C@H]1c2ccccc2C[C@H]1OCC#CC#CCO[C@@H]1Cc2ccccc2[C@@H]1NC(=O)[C@@H]1CCCN1C(=O)[C@@H](NC(=O)[C@H](C)NC)C1CCCCC1)C1CCCCC1` ?
Result: < 0.01 µM
